Assay: rescue of L929 cells from zVAD death – primary screen (AID 1377);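 further: 0% = zVAD with DMSO and 100% = DMSO alone without zVAD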
Conditions: L929 zVAD necroptosis rescue, ATP luminescence, 24 h, at 10 µM, active compounds read high; with zVAD 60 µM unless noted
Among all 220,000 compounds or so, about 830 (0.38%) were called active. The sample holds actives, similar compounds and a random draw of the others, so the mix is not that of the screen.
quantity measured: viability rescue

# annotated cases, reported viability rescue shown
| compound | viability rescue |
| --- | --- |
| COC(=O)Cn1cc(/C=C/[N+](=O)[O-])c2ccccc21 | -0.01% (inactive) |
| COC(=O)C1=C(C)N(C(C)c2ccccc2)C(=O)/C1=C\c1ccco1 (stereo not given) | 10.9% (inactive) |
| O=C(NC(=S)Nc1ccc2oc(=O)ccc2c1)c1ccc(-c2cccc(Cl)c2Cl)o1 | 0.38% (inactive) |
| CCCCC(CCC(=O)Nc1ccc(C(=O)OCC)cc1)C(=O)O (stereo not given) | 0.34% [with zVAD 20 µM] (inactive) |

Need viability rescue of O=C(COC(=O)/C=C/c1nc2ccccc2s1)Nc1ccccc1Oc1ccccc1 , thanks.
0.66% (inactive)

----------
Assay: rescue of L929 cells from zVAD death – primary screen (AID 1377);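 further: 0% = zVAD with DMSO and 100% = DMSO alone without zVAD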
Details: L929 zVAD necroptosis rescue, ATP luminescence, 24 h, at 10 µM; with zVAD 60 µM unless noted
Among all 220,000 compounds or so, about 830 (0.38%) were called active.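 Rule for the calls: active = activation, scaled between plate controls, above about 75% (limit read from the data); inactive = activation under that limit.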 The list comes from a sample in which actives are over-represented; it also holds close analogues and randomly drawn compounds.
Tick one outcome: active, inactive

Take a look at these entries with their results.
| compound | class name |
| --- | --- |
| CCOC(=O)N1CCN(C(=O)COc2ccc(Cl)cc2C)CC1 | inactive |
| OCCCNc1nccc(-c2cc(Nc3cccc(Cl)c3)ncn2)n1 | active |
| Cc1cc(NC(=O)c2cnn3cccnc23)n(-c2ccccc2)n1 | active |
| CCc1c(SCCC(=O)O)nc2ccccc2c1C | inactive |

Hi, sorry to bother you, what did the test record for CCOC(=O)c1cc(Sc2ccccc2N)cc(C(=O)OCC)n1 ?
inactive

Hi, sorry to bother you, what did the test record for Cc1cc(NC(=O)Nc2ccccc2)n(-c2ccccc2)n1 ?
inactive

Hi, sorry to bother you, what did the test record for Cc1ccc(-c2csc(N(Cc3ccco3)C(=O)c3cccs3)n2)cc1 ?
inactive

Hi, sorry to bother you, what did the test record for O=C(COc1ccc(Cl)cc1)NCCC1=CCCCC1 ?
inactive

Hi, sorry to bother you, what did the test record for CC1CCCC(C)N1/N=C/c1ccccc1OC(F)F (stereo not drawn) ?
inactive

----------
Form field: viability rescue (one value per entry).
Assay: rescue of L929 cells from zVAD death – primary screen (AID 1377);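 further: 0% = zVAD with DMSO and 100% = DMSO alone without zVAD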
Details: L929 zVAD necroptosis rescue, ATP luminescence, 24 h, at 10 µM, active compounds read high; with zVAD 60 µM unless noted
The whole screen tested about 220,000 compounds, of which about 830 (0.38%) were called active. The sample as a whole holds a higher share of actives than the screen did.

| compound | viability rescue |
| --- | --- |
| COc1ccc(C2CC(c3cccs3)Nc3nnnn32)cc1 (stereo unspecified) | 2.51% (inactive) |
| Cc1noc(C)c1C(=O)OCC(=O)N1CCN(S(=O)(=O)c2ccc3ccccc3c2)CC1 | 0.85% (inactive) |
| Cc1ccc(C(=O)Nc2ccccc2C(=O)NC2CCCCC2)cc1S(=O)(=O)N1CCOCC1 | -0.61% (inactive) |
| Cc1cc(=O)oc2cc(OCC(=O)Nc3nnc(C4CC4)s3)ccc12 | -0.67% (inactive) |

Need viability rescue of CN1CCN(C2=NCCO2)CC1 , thanks.
1% (inactive)

Need viability rescue of Cc1nn(C)c(Oc2ccccc2)c1CCNS(=O)(=O)c1ccc(F)cc1 , thanks.
0.02% [with zVAD 20 µM] (inactive)

Need viability rescue of CCN1CCCC1CNC(=O)c1cc2c(=O)n(C)c3ccccc3c2n1C (stereo unspecified) , thanks.
22.7% [with zVAD 20 µM] (inactive)

Need viability rescue of Cc1ccc(NC(=O)NC2CCCCC2)cc1S(=O)(=O)N1CCOCC1 , thanks.
75.4% (active)

Need viability rescue of COc1cc2nc(Cl)nc(NCCO)c2cc1OC , thanks.
0.24% (inactive)

Need viability rescue of Cc1ccc2cc(/C=N/Nc3ccc(C(=O)O)cc3)c(Cl)nc2c1 , thanks.
1.59% (inactive)

Need viability rescue of COc1ccc(-c2cc(C(=O)NC(Cc3c[nH]c4ccccc34)C(=O)O)c(C)o2)cc1OC (stereo unspecified) , thanks.
1.33% (inactive)
